Cited source for all entries: PubChem BioAssay (NCI)

# Assay explanation: NCI Yeast Anticancer Drug Screen. Data for the wt2 strain (AID 169);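 note: 0% = growth of vehicle-treated yeast cultures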
# Experimental setup: S. cerevisiae wt2 strain growth inhibition; at 11.0 µM; active compounds read high
This is part of a sample that, as a whole, favours compounds with a hit. Of some 79,000 tested, about 15% had one in any assay.
// reported growth inhibition for each item listed

{"Compound": "Nc1cc2ccccc2cc1Br", "growth inhibition, %": -17}
{"Compound": "CC(C)N1CSC(=S)N(Cc2ccccc2)C1", "growth inhibition, %": 23}
{"Compound": "O=Cc1cc([N+](=O)[O-])ccc1O.[Eu]", "growth inhibition, %": 20}
{"Compound": "COc1cccc(-c2nnc(-c3ccccc3)o2)c1", "growth inhibition, %": 4}
{"Compound": "CCCCCCCCCCCCN", "growth inhibition, %": -9}
{"Compound": "c1ccc2nc3c(ccc4ccccc43)cc2c1", "growth inhibition, %": 64}
{"Compound": "CCC(C)c1ccc(O)c(C(C)CC)c1 (stereo not drawn)", "growth inhibition, %": -11}
{"Compound": "Cc1nc(N=C(N)N)nc2ccc3ccccc3c12", "growth inhibition, %": 0}
{"Compound": "CCO/C=C1\\SC(=S)N(c2cccc(O)c2)C1=O", "growth inhibition, %": -13}
{"Compound": "COc1ccc(CC(=O)c2ccc(O)cc2O)cc1", "growth inhibition, %": -13}
{"Compound": "OC(CF)(c1ccc(Cl)cc1)c1ccc(Cl)cc1", "growth inhibition, %": 17}
{"Compound": "Cc1ccc(S(=O)(=O)NC2CCCCCCC2)cc1", "growth inhibition, %": -23}
{"Compound": "COc1ccc(Cc2ccc(O)cc2)cc1", "growth inhibition, %": -9}

###

# Assay explanation: NCI Yeast Anticancer Drug Screen. Data for the cln2 rad14 strain (AID 165);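 note: 0% = growth equal to vehicle treated cultures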
# Experimental setup: S. cerevisiae cln2 rad14 strain, at 5.0 µM (retest, dose inferred, filed as 0.5), active compounds read high
This is part of a sample that, as a whole, favours compounds with a hit. Of some 79,000 tested, about 15% had one in any assay.
Answer condition not met if growth inhibition is under 10%, and condition met if it is 10% or more.

{"Compound": "C=CCC(O)c1ccc(C(C)C)cc1 (centres undefined)", "Group label": "condition not met"}
{"Compound": "c1ccc(N=c2cnc3c(ccc4ccccc43)o2)cc1", "Group label": "condition met"}
{"Compound": "COc1cc(/C=C/C(=O)NCCCCN=[N+]=[N-])ccc1OCc1ccccc1", "Group label": "condition not met"}
{"Compound": "COc1ccc(/C=C2\\CCCC(CN(C)C)C2=O)cc1 (centres undefined)", "Group label": "condition not met"}
{"Compound": "COc1ccc2[nH]c3c(C)c4ccncc4c(C)c3c2c1", "Group label": "condition met"}
{"Compound": "CC(=O)OC1CCC2(C)C(CCC3C4CCC(OC(C)=O)C4(C)CCC32)O1 (centres undefined)", "Group label": "condition not met"}
{"Compound": "Cc1c2cc[n+](C)cc2c(C)c2c1[nH]c1ccccc12", "Group label": "condition met"}
{"Compound": "CC(C)(Cc1nocc1C(C)(C)CC#N)c1cc(CC(C)(C)C2(C)OCCO2)no1", "Group label": "condition not met"}
{"Compound": "O=C(O)c1ccccc1C(=O)O", "Group label": "condition not met"}
{"Compound": "COC1/C=C/OC2(C)Oc3c(C)c(O)c4c(c3C2=O)C(=O)C=C(NC(=O)/C(C)=C\\C=C\\C(C)C2OC(C)(C)OC(C2C)C(C)C(OC(C)=O)C1C)C4=O (centres undefined)", "Group label": "condition not met"}
{"Compound": "O=C1c2ccccc2C(=O)c2cc(S(=O)(=O)O)ccc21", "Group label": "condition not met"}
{"Compound": "Clc1nc(Cl)c(Cl)c(Cl)n1", "Group label": "condition met"}
{"Compound": "Clc1ccc(/C=C/c2ccccn2)c(Cl)c1", "Group label": "condition not met"}
{"Compound": "O=C1C=CC(=O)C(C2OC(=O)C(Br)=C2Br)=C1 (centres undefined)", "Group label": "condition not met"}
{"Compound": "COc1cc(O)ccc1C(=S)SC", "Group label": "condition not met"}
{"Compound": "C=CCOC(=O)c1ccc(C(=O)OCC=C)cc1", "Group label": "condition not met"}
{"Compound": "OCc1ccccc1C(c1ccccc1)c1ccccc1", "Group label": "condition not met"}
{"Compound": "C=CCN(CC=C)C(CC(=O)C(C)(C)C)=NCC", "Group label": "condition not met"}
{"Compound": "O=C1N(c2ccccc2)C(=O)N1c1ccccc1", "Group label": "condition met"}
{"Compound": "CN(C)CCCN=c1c2ccccc2n(O)c2cccc([N+](=O)[O-])c12", "Group label": "condition met"}
{"Compound": "CCOC(=O)/C(C#N)=C\\c1ccc([N+](=O)[O-])o1", "Group label": "condition not met"}
{"Compound": "COc1cc2c(c(OC)c1OC)-c1ccc(SC)c(=O)cc1C(NC(=O)c1ccccc1)CC2 (centres undefined)", "Group label": "condition met"}
{"Compound": "c1ccc(C(c2ccccc2)n2ccnc2)cc1", "Group label": "condition not met"}

###

# Assay explanation: NCI Yeast Anticancer Drug Screen. Data for the bub3 strain (AID 167)
# Experimental setup: S. cerevisiae bub3 mutant strain, at 50.0 µM, active compounds read high
This is part of a sample that, as a whole, favours compounds with a hit. Of some 79,000 tested, about 15% had one in any assay. Activity calls are given as the source filed them. Cut-off read from the data, not from the text of the source: active = growth inhibition above about 70%; inactive = the rest.

{"Compound": "OC(CF)(c1ccc(Cl)cc1)c1ccc(Cl)cc1", "growth inhibition": "91% (active)"}
{"Compound": "CCCCCCCc1c(Cl)nc(Cl)nc1Cl", "growth inhibition": "76.2% (active)"}
{"Compound": "Cc1n(Cc2ccccc2)c2c([n+]1C)C(=O)c1ccccc1C2=O", "growth inhibition": "89.2% (active)"}
{"Compound": "COC(=O)C(CC(C)=O)CS(=O)(=O)CC(=O)C(=O)Nc1cccc([N+](=O)[O-])c1 (stereo not drawn)", "growth inhibition": "99.2% (active)"}
{"Compound": "Nc1cc2c(cc1Cl)[nH]c(=O)c1cc(Cl)ccc12", "growth inhibition": "-11.3% (inactive)"}
{"Compound": "CCc1cc2c(cc1C(C)=O)C(C)(C)CCC2", "growth inhibition": "98.7% (active)"}
{"Compound": "CCCCCCCCCC(=O)c1ccc(O)c(O)c1O", "growth inhibition": "90.5% (active)"}
{"Compound": "CC1(C)CC(=O)C2=C(C1)OC1=C(CC(C)(C)CC1=O)C2c1ccccc1Cl (stereo not drawn)", "growth inhibition": "13.2% (inactive)"}
{"Compound": "CCCCCCCCC(Sc1n[nH]c(=O)[nH]c1=O)C(=O)OCC (stereo not drawn)", "growth inhibition": "88.5% (active)"}
{"Compound": "O/N=C/c1cc(I)c(O)c(I)c1", "growth inhibition": "98.8% (active)"}
{"Compound": "Cc1ccnc2c1c(=O)c1ccccc1n2C", "growth inhibition": "71.6% (active)"}
{"Compound": "O=c1[nH]c(SCc2c(Cl)c(Cl)c(Cl)c(Cl)c2Cl)nc(=S)[nH]1", "growth inhibition": "65.8% (inactive)"}
{"Compound": "c1ccc2c(c1)[nH]c1c(N3CCOCC3)nnc(N3CCOCC3)c12", "growth inhibition": "47.1% (inactive)"}
{"Compound": "NCCCC(=O)O", "growth inhibition": "-15.2% (inactive) [middle of 4 runs]"}
{"Compound": "CCN(CC)CCCn1c2cc(=O)c(=O)cc-2[nH]c2cc(C)ccc21", "growth inhibition": "-8.05% (inactive)"}
{"Compound": "COc1ccc(/C=C/NC=O)cc1", "growth inhibition": "19.8% (inactive)"}
{"Compound": "OC1C(O)C(O)C(O)C(O)C1O (stereo not drawn)", "growth inhibition": "0.4% (inactive) [middle of 5 runs]"}
{"Compound": "COC1/C=C\\C=C(/C)C(=O)Nc2cc3nc4ccc(Br)cc4oc-3c(c2=O)CC(C)CC(OC)C(O)C(C)/C=C(\\C)C1OC(N)=O (stereo not drawn)", "growth inhibition": "90.7% (active)"}
{"Compound": "COC1CC2CCC(C)[C@](O)(O2)C(=O)C(=O)N2CCCCC2C(=O)OC(C(C)CC2CCC(O)C(OC)C2)CC(=O)C(C)C=C(C)C(OC(=O)CN(C)C)C(OC)C(=O)C(C)CC(C)/C=C/C=C/C=C\\1C (stereo partly drawn)", "growth inhibition": "91.7% (active)"}
{"Compound": "CCCC(C)NCCOC(=O)C(c1ccccc1)C1CCCCC1 (stereo not drawn)", "growth inhibition": "57.5% (inactive)"}
{"Compound": "C=C(C)C(=O)Oc1ccc(N=Nc2ccccc2)ccc1=O", "growth inhibition": "81.8% (active)"}
{"Compound": "CCN1CCC(O)(/C=C/c2ccc(C)cc2)C(C(=O)/C=C/c2ccc(C)cc2)C1 (stereo not drawn)", "growth inhibition": "90.6% (active)"}
{"Compound": "O=C(NO)c1cccnc1", "growth inhibition": "11.8% (inactive)"}
